molecular target: linear tetra-SUMO2 (4×SUMO2-ΔN11), P61956; assay: ITC (calorimetric titration); conditions: chain shown with the change
Sequence (P61956 other isoform, or with tags, fused parts or gaps mutant): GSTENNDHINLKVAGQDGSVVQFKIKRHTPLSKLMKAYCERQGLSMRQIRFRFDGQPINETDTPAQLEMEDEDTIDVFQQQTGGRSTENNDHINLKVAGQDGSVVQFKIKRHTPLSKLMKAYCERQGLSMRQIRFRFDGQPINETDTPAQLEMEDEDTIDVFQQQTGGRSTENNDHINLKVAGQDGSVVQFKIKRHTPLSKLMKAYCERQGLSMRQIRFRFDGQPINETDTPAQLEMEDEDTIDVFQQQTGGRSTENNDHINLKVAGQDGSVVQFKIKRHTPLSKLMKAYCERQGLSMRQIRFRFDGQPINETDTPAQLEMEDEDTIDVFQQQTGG
RECORDED_ENDPOINT: Kd (µM)

[[record]]
binder = "RNF4 1–125 (RNF4-SIM domain, wt), P78317 SIM1/3mut (protein) MSTRKRRGGAINSRQAQKRTREATSTPEISLEAEPAAAAETAGDEIVDLTCESLEPVVAAAAHNDSVVIVDERRRPRRNARRLPQDHADSCVVSSDDEELSRDRDVYVTTHTPRNARDEGATGLR"
recorded_endpoint = "Kd"
unit_text = "µM"
value = 2.4


a: RNF4 1–125 (RNF4-SIM domain, wt), P78317 SIM2/3mut (protein) MSTRKRRGGAINSRQAQKRTREATSTPEISLEAEPIELVETAGDEIAAAACESLEPVVAAAAHNDSVVIVDERRRPRRNARRLPQDHADSCVVSSDDEELSRDRDVYVTTHTPRNARDEGATGLR
b: RNF4 1–125 (RNF4-SIM domain, wt), P78317 SIM2mut (protein) MSTRKRRGGAINSRQAQKRTREATSTPEISLEAEPIELVETAGDEIAAAACESLEPVVVDLTHNDSVVIVDERRRPRRNARRLPQDHADSCVVSSDDEELSRDRDVYVTTHTPRNARDEGATGLR
Q: API: POST /compare with a and b ; response names the item with higher Kd. Could you answer with the label of the item you picked?
Ans: a
(a: 48 µM, b: 2.1 µM)

I: RNF4 1–125 (RNF4-SIM domain, wt), P78317 SIM3/4mut (protein) MSTRKRRGGAINSRQAQKRTREATSTPEISLEAEPIELVETAGDEIVDLTCESLEPVVAAAAHNDSAAAADERRRPRRNARRLPQDHADSCVVSSDDEELSRDRDVYVTTHTPRNARDEGATGLR
II: RNF4 1–125 (RNF4-SIM domain, wt), P78317 SIM1/4mut (protein) MSTRKRRGGAINSRQAQKRTREATSTPEISLEAEPAAAAETAGDEIVDLTCESLEPVVVDLTHNDSAAAADERRRPRRNARRLPQDHADSCVVSSDDEELSRDRDVYVTTHTPRNARDEGATGLR
Q: Consider entries I and II . Which has the numerically lower Kd? Your answer should be the label attached to the chosen record.
Ans: II
